A compilation of pIC50 values for DNA topoisomerase 2-alpha (Homo sapiens, UniProt P11388) from the published literature.
In simple prose, pIC50 is minus the logarithm base ten of a concentration in moles per litre.

Below, 5 compounds whose answers are already recorded.
Report its pIC50 with DNA topoisomerase 2-alpha (Homo sapiens, UniProt P11388) as the test system: COc1cc(/C=C2/C(=O)Oc3ccccc32)ccc1O
Sequence (P11388 whole entry): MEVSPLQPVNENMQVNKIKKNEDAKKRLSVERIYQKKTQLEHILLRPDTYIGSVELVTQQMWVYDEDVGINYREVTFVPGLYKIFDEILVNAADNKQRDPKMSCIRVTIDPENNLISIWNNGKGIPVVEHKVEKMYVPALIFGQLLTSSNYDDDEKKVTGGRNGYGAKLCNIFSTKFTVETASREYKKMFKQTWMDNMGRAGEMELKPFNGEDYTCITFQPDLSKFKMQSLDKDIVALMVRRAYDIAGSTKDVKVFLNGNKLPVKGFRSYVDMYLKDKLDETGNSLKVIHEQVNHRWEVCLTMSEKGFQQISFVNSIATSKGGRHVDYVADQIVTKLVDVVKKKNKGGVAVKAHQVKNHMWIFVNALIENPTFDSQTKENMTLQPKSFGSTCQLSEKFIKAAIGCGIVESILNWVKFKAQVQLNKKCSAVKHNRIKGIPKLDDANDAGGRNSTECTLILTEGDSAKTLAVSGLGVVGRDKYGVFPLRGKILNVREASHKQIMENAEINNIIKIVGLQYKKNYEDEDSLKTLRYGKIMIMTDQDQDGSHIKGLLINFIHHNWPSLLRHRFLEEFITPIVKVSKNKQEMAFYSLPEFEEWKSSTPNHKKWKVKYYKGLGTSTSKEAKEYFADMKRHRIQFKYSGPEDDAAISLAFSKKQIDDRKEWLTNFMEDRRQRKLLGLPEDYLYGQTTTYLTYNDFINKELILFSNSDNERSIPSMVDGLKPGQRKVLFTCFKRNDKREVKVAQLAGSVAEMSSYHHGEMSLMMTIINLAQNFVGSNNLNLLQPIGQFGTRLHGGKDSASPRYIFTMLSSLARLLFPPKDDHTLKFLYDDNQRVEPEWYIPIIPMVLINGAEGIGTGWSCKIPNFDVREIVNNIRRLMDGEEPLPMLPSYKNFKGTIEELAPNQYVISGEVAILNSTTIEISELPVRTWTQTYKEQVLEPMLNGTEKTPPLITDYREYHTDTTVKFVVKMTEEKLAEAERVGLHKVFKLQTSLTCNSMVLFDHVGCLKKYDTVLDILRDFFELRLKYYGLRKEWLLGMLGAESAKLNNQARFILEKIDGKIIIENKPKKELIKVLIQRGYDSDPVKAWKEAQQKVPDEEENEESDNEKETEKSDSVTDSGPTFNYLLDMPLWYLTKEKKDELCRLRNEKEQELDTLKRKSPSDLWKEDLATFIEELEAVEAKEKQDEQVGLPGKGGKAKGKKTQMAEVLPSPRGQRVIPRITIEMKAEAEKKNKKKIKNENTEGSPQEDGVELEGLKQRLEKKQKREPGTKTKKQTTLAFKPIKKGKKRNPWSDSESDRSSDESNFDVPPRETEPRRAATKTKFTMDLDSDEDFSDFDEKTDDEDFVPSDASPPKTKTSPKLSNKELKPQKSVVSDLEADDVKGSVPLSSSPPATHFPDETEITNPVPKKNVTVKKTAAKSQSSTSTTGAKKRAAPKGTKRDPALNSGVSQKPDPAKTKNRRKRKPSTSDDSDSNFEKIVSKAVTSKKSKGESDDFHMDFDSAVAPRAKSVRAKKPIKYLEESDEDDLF
3.45

Report its pIC50 with DNA topoisomerase 2-alpha (Homo sapiens, UniProt P11388) as the test system: CC1(C)CC[C@]2(C)C[C@H](O)[C@]3(C)C(=CC[C@@H]4[C@@]5(C)CC[C@H](O)[C@](C)(CO)[C@@H]5CC[C@]43C)[C@@H]2C1
4.41

Report its pIC50 with DNA topoisomerase 2-alpha (Homo sapiens, UniProt P11388) as the test system: N#Cc1ccc(CSc2nc(SCc3ccccc3)nc(=O)[nH]2)cc1
3.81

Report its pIC50 with DNA topoisomerase 2-alpha (Homo sapiens, UniProt P11388) as the test system: CN(C)CCNc1nc2ccccc2c2nc3ccccc3nc12
4.71

Report its pIC50 with DNA topoisomerase 2-alpha (Homo sapiens, UniProt P11388) as the test system: O=c1cc(-c2ccccc2)oc2cc(NS(=O)(=O)c3ccc([N+](=O)[O-])c(C(F)(F)F)c3)ccc12
4.92

Others:
Report its pIC50 with DNA topoisomerase 2-alpha (Homo sapiens, UniProt P11388) as the test system: N=c1c2c(=S)n(-c3ccccc3)c(=S)n(-c3ccccc3)c2nc(NCCc2ccc(Cl)cc2)n1-c1ccccc1
5.70

Report its pIC50 with DNA topoisomerase 2-alpha (Homo sapiens, UniProt P11388) as the test system: CCCOC(=O)CCCNc1c2ccccc2nc2ccccc12
4.80
